pIC50: −log10 of the molar value.
Record: compiled pIC50 on VPS34 (Homo sapiens, UniProt Q8NEB9) from multiple reports.
Sequence (Q8NEB9 whole entry): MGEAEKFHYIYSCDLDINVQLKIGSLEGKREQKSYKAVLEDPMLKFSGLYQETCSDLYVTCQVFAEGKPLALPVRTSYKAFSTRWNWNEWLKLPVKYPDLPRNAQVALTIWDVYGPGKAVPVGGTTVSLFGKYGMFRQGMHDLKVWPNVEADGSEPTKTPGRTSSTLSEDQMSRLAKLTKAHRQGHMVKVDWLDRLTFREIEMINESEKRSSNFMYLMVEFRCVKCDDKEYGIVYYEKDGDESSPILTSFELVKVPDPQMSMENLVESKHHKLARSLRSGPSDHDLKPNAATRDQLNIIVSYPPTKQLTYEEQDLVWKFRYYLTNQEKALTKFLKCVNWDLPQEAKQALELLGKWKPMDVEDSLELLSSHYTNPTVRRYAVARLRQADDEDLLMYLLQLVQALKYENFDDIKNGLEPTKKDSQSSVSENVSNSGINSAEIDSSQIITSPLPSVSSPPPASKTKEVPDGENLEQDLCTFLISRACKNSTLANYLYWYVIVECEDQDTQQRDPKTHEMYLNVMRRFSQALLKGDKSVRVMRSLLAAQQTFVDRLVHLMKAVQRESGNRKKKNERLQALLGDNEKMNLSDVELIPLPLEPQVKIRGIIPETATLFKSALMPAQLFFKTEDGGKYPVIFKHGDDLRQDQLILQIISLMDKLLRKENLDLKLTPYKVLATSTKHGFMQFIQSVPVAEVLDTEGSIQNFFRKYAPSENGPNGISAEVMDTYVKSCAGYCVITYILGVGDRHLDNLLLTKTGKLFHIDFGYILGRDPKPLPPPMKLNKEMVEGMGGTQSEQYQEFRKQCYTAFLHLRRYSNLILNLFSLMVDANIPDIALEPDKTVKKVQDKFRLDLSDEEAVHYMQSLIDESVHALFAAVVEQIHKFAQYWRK

Qu. Value lookup for pIC50; key = CC(=O)Nc1cc(-c2cncc3c2ccn3S(C)(=O)=O)ccn1
Ans. 7.30 to 8.00

Qu. // returns reported pIC50 for input CC(C)(O)CN1c2nc(N3CCOCC3)cc(=O)n2CC[C@H]1C(F)(F)F
Ans. > 8.00

Qu. Please look up its pIC50: CC(=O)Nc1cc(-c2cnc(C)c(NS(=O)(=O)c3nccn3C)c2)ccn1
Ans. 7.30 to 8.00

Qu. Form field: reported pIC50 of CC(=O)Nc1cc(-c2cnc(C)c3c2ccn3S(C)(=O)=O)ccn1
Ans. 7.30 to 8.00

Qu. Name the reported pIC50 value associated with the compound CC(=O)Nc1cc(-c2cn(-c3ccc(Cl)cc3Cl)c(-c3ccn[nH]3)n2)c(C)cn1
Ans. 5.52 to 6.00

Qu. Please report the recorded pIC50 for COC(=O)Nc1cc(-c2cnc(C)c3c2ccn3S(=O)(=O)CC(C)C)ccn1 .
Ans. > 8.00

Qu. Fill blank: measured pIC50 of the compound Cc1cnc(NC(=O)C2CC2)cc1-n1cc(-c2nc[nH]n2)c(-c2cc(CN3CCCC3)ccc2Cl)c1 is ____.
Ans. > 7.30

Qu. # query: pIC50 of entry O=c1cc(N2CCOCC2)nc2n1CC[C@@H](C(F)(F)F)N2CCO
Ans. 7.00 to 8.00
